biological target: cdk4/cyclin D1 (Homo sapiens); assay: Cyclin-dependent kinase assay, cdk4/cyclin D1; assay type: biochemical; settings: cyclin D1/cdk4; GST-pRb substrate, 10 µM ATP
Counter-ions that a name gives are not always drawn.
readout_type: pIC50
Recall that pIC50 is obtained by taking minus log10 of the concentration measured in molar.

N[C@H]1CC[C@H](Nc2nc(NC3CCN(C(=O)Nc4cc(C(F)(F)F)cc(C(F)(F)F)c4)CC3)c3ncn(C4CCCC4)c3n2)CC1 [compound 176, dihydrochloride]
6.05
N[C@H]1CC[C@H](Nc2nc(NC3CCN(S(=O)(=O)c4ccc(C(F)(F)F)cc4[N+](=O)[O-])CC3)c3ncn(C4CCCC4)c3n2)CC1 [compound 132, dihydrochloride]
6.23

Query block: Data request, read-out pIC50, for C=CCCC(=O)N1CCC(Nc2nc(N[C@H]3CC[C@H](N)CC3)nc3c2ncn3C2CCCC2)CC1 [compound 49, dihydrochloride]
Result block: 7.06

Query block: Data request, read-out pIC50, for N[C@H]1CC[C@H](Nc2nc(NC3CCN(C(=O)Nc4ccccc4Br)CC3)c3ncn(C4CCCC4)c3n2)CC1 [compound 168, dihydrochloride]
Result block: 6.95

Query block: Data request, read-out pIC50, for N[C@H]1CC[C@H](Nc2nc(NC3CCN(C(=O)Nc4ccc(Cl)cc4Cl)CC3)c3ncn(C4CCCC4)c3n2)CC1 [compound 167, dihydrochloride]
Result block: 7.20

Query block: Data request, read-out pIC50, for N[C@H]1CC[C@H](Nc2nc(NC3CCN(C(=O)c4ccc(Br)cc4)CC3)c3ncn(C4CCCC4)c3n2)CC1
Result block: 6.25

* * *

In this section we review reported IC50 values for a set of molecules.
biological target: cdk1/cyclin B (Homo sapiens, UniProt P06493); assay: Cyclin-dependent kinase assay, cdk1/cyclin B; details: CDK1 IC50, nM, Histone H1, 10 µM ATP
Sequence (P06493 whole entry): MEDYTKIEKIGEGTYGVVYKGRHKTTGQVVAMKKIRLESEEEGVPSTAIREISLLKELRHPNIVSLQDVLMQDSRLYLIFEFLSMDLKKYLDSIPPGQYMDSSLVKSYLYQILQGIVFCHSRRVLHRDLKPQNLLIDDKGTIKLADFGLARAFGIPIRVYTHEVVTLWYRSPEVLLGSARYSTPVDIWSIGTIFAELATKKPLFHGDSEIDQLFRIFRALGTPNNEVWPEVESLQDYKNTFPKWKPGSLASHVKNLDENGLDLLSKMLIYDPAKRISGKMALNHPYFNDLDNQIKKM
Sequence (P14635 whole entry partner): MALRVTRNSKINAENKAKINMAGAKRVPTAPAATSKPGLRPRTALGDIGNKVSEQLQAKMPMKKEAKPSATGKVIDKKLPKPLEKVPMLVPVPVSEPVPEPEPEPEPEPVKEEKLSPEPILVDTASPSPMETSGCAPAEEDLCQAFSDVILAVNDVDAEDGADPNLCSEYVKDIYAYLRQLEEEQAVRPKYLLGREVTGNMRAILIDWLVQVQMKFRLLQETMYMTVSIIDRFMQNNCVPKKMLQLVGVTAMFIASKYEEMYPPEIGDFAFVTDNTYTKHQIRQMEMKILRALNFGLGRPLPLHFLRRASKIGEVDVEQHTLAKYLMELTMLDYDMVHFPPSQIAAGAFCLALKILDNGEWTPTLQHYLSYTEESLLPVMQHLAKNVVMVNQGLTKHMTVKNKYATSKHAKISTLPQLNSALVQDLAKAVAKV
Structures can show the parent of a compound that is named as a salt.
Answer format: value, then unit.

Some solved entries appear below for comparison.
Cl.Cl.N[C@H]1CC[C@H](Nc2nc(NC3CCN(S(=O)(=O)c4cccc(C(F)(F)F)c4)CC3)c3ncn(C4CCCC4)c3n2)CC1 [compound 112, dihydrochloride]
32 nM
Cl.Cl.N[C@H]1CC[C@H](Nc2nc(NC3CCN(C(=O)Nc4ccc(C(F)(F)F)cc4)CC3)c3ncn(C4CCCC4)c3n2)CC1 [compound 149, dihydrochloride]
30 nM
CC(C)n1cnc2c(NC3CCN(C(=O)Nc4ccc(OC(F)(F)F)cc4)CC3)nc(N[C@H]3CC[C@H](N)CC3)nc21 [compound 211, dihydrochloride]
197 nM
CCCCCNC(=O)N1CCC(Nc2nc(N[C@H]3CC[C@H](N)CC3)nc3c2ncn3C2CCCC2)CC1 [compound 184, dihydrochloride]
77 nM
N[C@H]1CC[C@H](Nc2nc(NC3CCN(S(=O)(=O)c4ccc(OC(F)(F)F)cc4)CC3)c3ncn(C4CCCC4)c3n2)CC1 [compound 134, dihydrochloride]
200 nM
N[C@H]1CC[C@H](Nc2nc(NC3CCN(C(=O)Nc4cccc(Br)c4)CC3)c3ncn(C4CCCC4)c3n2)CC1 [compound 170, dihydrochloride]
3 nM
N[C@H]1CC[C@H](Nc2nc(NC3CCN(C(=O)Nc4ccc(Cl)cc4Cl)CC3)c3ncn(C4CCCC4)c3n2)CC1 [compound 167, dihydrochloride]
4 nM
CC(C)C(=O)N1CCC(Nc2nc(N[C@H]3CC[C@H](N)CC3)nc3c2ncn3C2CCCC2)CC1 [compound 59, dihydrochloride]
93 nM
C#CCOC(=O)N1CCC(Nc2nc(N[C@H]3CC[C@H](N)CC3)nc3c2ncn3C2CCCC2)CC1 [compound 102, dihydrochloride]
31 nM
N[C@H]1CC[C@H](Nc2nc(NC3CCN(C(=O)Nc4ccc(F)cc4)CC3)c3ncn(C4CCCC4)c3n2)CC1 [compound 147, dihydrochloride]
38 nM

Query block: API: value(readout=IC50, system=cdk1/cyclin B (Homo sapiens, UniProt P06493)) for record N[C@H]1CC[C@H](Nc2nc(NC3CCN(S(=O)(=O)c4ccc(C(F)(F)F)cc4[N+](=O)[O-])CC3)c3ncn(C4CCCC4)c3n2)CC1 [compound 132, dihydrochloride]
Result block: 74 nM

Query block: API: value(readout=IC50, system=cdk1/cyclin B (Homo sapiens, UniProt P06493)) for record CCCS(=O)(=O)N1CCC(Nc2nc(N[C@H]3CC[C@H](N)CC3)nc3c2ncn3C2CCCC2)CC1 [compound 131, dihydrochloride]
Result block: 100 nM

* * *

system: MDA-MB-435; assay: In vitro proliferation assay (MTT), MDA-MB-435; assay type: cell-based, human; conditions: Homo sapiens, MDA-MB-435, read-out: MB-435 Breast (IC50 µM)
Structures can show the parent of a compound that is named as a salt.
readout_type: IC50 (µM)
// units = µM; emit number, no label

N[C@H]1CC[C@H](Nc2nc(NC3CCN(C(=O)Oc4ccccc4[N+](=O)[O-])CC3)c3ncn(C4CCCC4)c3n2)CC1 [compound 99, dihydrochloride]
0.12
Cl.Cl.N[C@H]1CC[C@H](Nc2nc(NC3CCN(C(=O)Oc4ccc(Br)cc4)CC3)c3ncn(C4CCCC4)c3n2)CC1 [compound 81, dihydrochloride]
0.1
Cl.Cl.N[C@H]1CC[C@H](Nc2nc(NC3CCN(C(=O)Oc4ccc([N+](=O)[O-])cc4)CC3)c3ncn(C4CCCC4)c3n2)CC1 [compound 89, dihydrochloride]
0.06
Cl.Cl.N[C@H]1CC[C@H](Nc2nc(NC3CCN(C(=O)Oc4ccc(F)cc4)CC3)c3ncn(C4CCCC4)c3n2)CC1 [compound 87, dihydrochloride]
0.11

Query block: Data request, read-out IC50, for COc1ccc(OC(=O)N2CCC(Nc3nc(N[C@H]4CC[C@H](N)CC4)nc4c3ncn4C3CCCC3)CC2)cc1.Cl.Cl [compound 84, dihydrochloride]
Result block: 0.1

Query block: Data request, read-out IC50, for COC(=O)c1ccc(OC(=O)N2CCC(Nc3nc(N[C@H]4CC[C@H](N)CC4)nc4c3ncn4C3CCCC3)CC2)cc1.Cl.Cl [compound 83, dihydrochloride]
Result block: 0.17

* * *

molecular target: cdk4/cyclin D1 (Homo sapiens, UniProt P11802); assay: Cyclin-dependent kinase assay, cdk4/cyclin D1; format: biochemical; conditions: cyclin D1/cdk4; GST-pRb substrate, 10 µM ATP
Sequence (P11802 whole entry): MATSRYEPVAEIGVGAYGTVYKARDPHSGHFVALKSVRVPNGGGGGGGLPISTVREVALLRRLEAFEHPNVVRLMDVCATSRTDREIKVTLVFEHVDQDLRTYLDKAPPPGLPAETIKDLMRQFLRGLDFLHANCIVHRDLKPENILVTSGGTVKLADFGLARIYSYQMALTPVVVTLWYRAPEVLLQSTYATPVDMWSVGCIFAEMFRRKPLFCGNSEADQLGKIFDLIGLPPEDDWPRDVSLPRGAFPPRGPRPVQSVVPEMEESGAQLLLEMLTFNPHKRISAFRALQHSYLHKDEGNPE
Sequence (P24385 whole entry partner): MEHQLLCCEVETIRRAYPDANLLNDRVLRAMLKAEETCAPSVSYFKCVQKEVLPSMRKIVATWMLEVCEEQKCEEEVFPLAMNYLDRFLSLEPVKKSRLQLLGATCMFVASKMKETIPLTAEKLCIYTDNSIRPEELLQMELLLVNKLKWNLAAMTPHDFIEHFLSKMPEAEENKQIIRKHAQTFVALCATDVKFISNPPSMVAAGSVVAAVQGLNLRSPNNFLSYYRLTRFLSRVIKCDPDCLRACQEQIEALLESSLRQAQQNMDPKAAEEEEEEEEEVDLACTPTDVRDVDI
Counter-ions that a name gives are not always drawn.
In this section we review reported pIC50 values for a set of compounds.
Recall that pIC50 is obtained by taking minus log10 of the concentration measured in molar.

Some solved entries appear below for comparison.
CCOC(=O)CC(=O)N1CCC(Nc2nc(N[C@H]3CC[C@H](N)CC3)nc3c2ncn3C2CCCC2)CC1 [compound 29, dihydrochloride]
6.20
COc1ccc(OC(=O)N2CCC(Nc3nc(N[C@H]4CC[C@H](N)CC4)nc4c3ncn4C3CCCC3)CC2)cc1.Cl.Cl [compound 84, dihydrochloride]
7.16

Would you kindly look at the next entry?
Query block: API: value(readout=pIC50, system=cdk4/cyclin D1 (Homo sapiens, UniProt P11802)) for record N[C@H]1CC[C@H](Nc2nc(NC3CCN(S(=O)(=O)c4ccccc4)CC3)c3ncn(C4CCCC4)c3n2)CC1 [compound 105, dihydrochloride]
Result block: 7.16

* * *

target: cdk4/cyclin D1 (Homo sapiens, UniProt P11802); assay: Cyclin-dependent kinase assay, cdk4/cyclin D1; assay type: biochemical; settings: cyclin D1/cdk4; GST-pRb substrate, 10 µM ATP
Structures can show the parent of a compound that is named as a salt.
Please note: IC50 exactly at 0.3 µM is 0. Only values below 0.3 µM get 1.

CCCS(=O)(=O)N1CCC(Nc2nc(N[C@H]3CC[C@H](N)CC3)nc3c2ncn3C2CCCC2)CC1 [compound 131, dihydrochloride]
1
CC(C)CC(=O)N1CCC(Nc2nc(N[C@H]3CC[C@H](N)CC3)nc3c2ncn3C2CCCC2)CC1 [compound 60, dihydrochloride]
1

Query block: I'd appreciate it if you could check whether N[C@H]1CC[C@H](Nc2nc(NC3CCN(C(=O)c4ccc(I)cc4)CC3)c3ncn(C4CCCC4)c3n2)CC1 [compound 76] has IC50 smaller than 0.3 µM.
Result block: 0

Query block: I'd appreciate it if you could check whether N[C@H]1CC[C@H](Nc2nc(NC3CCN(C(=O)Cc4ccccc4)CC3)c3ncn(C4CCCC4)c3n2)CC1 [compound 52, dihydrochloride] has IC50 smaller than 0.3 µM.
Result block: 0

Query block: I'd appreciate it if you could check whether N[C@H]1CC[C@H](Nc2nc(NC3CCN(S(=O)(=O)/C=C/c4ccccc4)CC3)c3ncn(C4CCCC4)c3n2)CC1 [compound 118, dihydrochloride] has IC50 smaller than 0.3 µM.
Result block: 1

Query block: I'd appreciate it if you could check whether COc1ccc(CC(=O)N2CCC(Nc3nc(N[C@H]4CC[C@H](N)CC4)nc4c3ncn4C3CCCC3)CC2)cc1OC [compound 32, dihydrochloride] has IC50 smaller than 0.3 µM.
Result block: 1
